SYSTEM TESTED: Serine/threonine-protein kinase pim-1 (Homo sapiens)
Sequence (P11309 whole entry, looked up): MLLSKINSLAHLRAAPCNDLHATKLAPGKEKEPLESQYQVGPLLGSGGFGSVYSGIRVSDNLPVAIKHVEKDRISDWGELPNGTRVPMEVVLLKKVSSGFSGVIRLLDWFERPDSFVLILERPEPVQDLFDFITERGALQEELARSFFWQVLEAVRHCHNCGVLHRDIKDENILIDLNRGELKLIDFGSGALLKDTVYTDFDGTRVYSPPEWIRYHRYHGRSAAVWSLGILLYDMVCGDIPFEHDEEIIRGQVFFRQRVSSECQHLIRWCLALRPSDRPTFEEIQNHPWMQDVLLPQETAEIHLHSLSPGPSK
EXPERIMENT DESCRIPTION: Inhibition of human full length Pim-1 using RSRHSSYPAGT as substrate assessed as residual activity at 10 uM after 30 mins in presence of [gamma-33P]ATP; values are per cent of control
Define the label as label 1 when residual activity is strictly less than 50% and as label 0 in all remaining cases.

Past entries and their recorded results:
- MOL: "O=[N+]([O-])c1cc2cn[nH]c2c2c(-c3ccccc3)c[nH]c12"
  CLASS ASSIGNMENT: "label 1"
- MOL: "CCOC(=O)c1[nH]c2c(N)cc3cn[nH]c3c2c1-c1ccccc1"
  CLASS ASSIGNMENT: "label 1"
- MOL: "O=[N+]([O-])c1cc2cn[nH]c2c2cc[nH]c12"
  CLASS ASSIGNMENT: "label 1"
- MOL: "Nc1cc2cn[nH]c2c2cc[nH]c12"
  CLASS ASSIGNMENT: "label 1"
- MOL: "Cc1c[nH]c2c(N)cc3cn[nH]c3c12"
  CLASS ASSIGNMENT: "label 0"
- MOL: "CCOC(=O)c1[nH]c2c([N+](=O)[O-])cc3cn[nH]c3c2c1C"
  CLASS ASSIGNMENT: "label 0"
- MOL: "CCOCc1c[nH]c2c([N+](=O)[O-])cc3cn[nH]c3c12"
  CLASS ASSIGNMENT: "label 1"
- MOL: "CCCc1c(C(=O)OC)[nH]c2c(N)cc3cn[nH]c3c12"
  CLASS ASSIGNMENT: "label 1"

Problem: Below 50% on residual activity? Entry "CCCc1c[nH]c2c([N+](=O)[O-])cc3cn[nH]c3c12"
Result: label 0

Problem: Below 50% on residual activity? Entry "Cc1c[nH]c2c([N+](=O)[O-])cc3cn[nH]c3c12"
Result: label 1

Problem: Below 50% on residual activity? Entry "C[Si](C)(C)c1cc2c([nH]1)c(N)cc1cn[nH]c12"
Result: label 0
